# System tested: T1, Bzz1-1, P38822
# T1 sequence (P38822 478-572, looked up): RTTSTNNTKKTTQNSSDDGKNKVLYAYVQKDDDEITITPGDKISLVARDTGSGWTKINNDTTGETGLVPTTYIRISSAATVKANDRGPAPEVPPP
# Assay notes: SPOT array
# Experimental setup: median of control spots 4446
The following binders are listed with their measured SPOT intensity values.
Property label: SPOT intensity

Binder | Result value
STKKPRPPVKSKPKH | 1
SRSKPLPLTPNSKYN | 2
DFTLPPPPPPPGLDE | 0
FSRRQSMDIPSKNRN | 1
VLRFLGFPLPIFEKG | 0
MPAPPPPPPPPPGAF | 0
